Values were extracted from patent US20220317138A1.

# test.target: beta-lactamase class D OXA-48 (Klebsiella pneumoniae, UniProt Q6XEC0)
# Sequence (Q6XEC0 23-265 limits assumed): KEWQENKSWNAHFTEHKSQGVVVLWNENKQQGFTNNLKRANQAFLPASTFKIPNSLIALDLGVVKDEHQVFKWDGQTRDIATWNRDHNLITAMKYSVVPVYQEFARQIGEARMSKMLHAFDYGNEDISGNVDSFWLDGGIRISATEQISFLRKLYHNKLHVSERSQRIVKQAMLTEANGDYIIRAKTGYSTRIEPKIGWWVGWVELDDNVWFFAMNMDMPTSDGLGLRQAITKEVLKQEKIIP
# Format: biochemical
# run.parameters: Meropenem 20.0 mg/L, second β-lactam 200.0 mg/L (10 times excess), replicate 4
readout: [Meropenem] Replicate 4

Query: For the compound CC1(C)S[C@@H]2[C@H](NC(=O)[C@H](N)c3ccccc3)C(=O)N2[C@H]1C(=O)O , what [Meropenem] Replicate 4 is on record?
Response: 21.3 mg/L

Query: For the compound Cn1nnnc1SCC1=C(C(=O)O)N2C(=O)[C@@H](NC(=O)[C@H](O)c3ccccc3)[C@H]2SC1 , what [Meropenem] Replicate 4 is on record?
Response: 23.4 mg/L

Query: For the compound CO/N=C(\C(=O)N[C@@H]1C(=O)N2C(C(=O)O)=C(COC(N)=O)CS[C@H]12)c1ccco1 , what [Meropenem] Replicate 4 is on record?
Response: 22.4 mg/L

Query: For the compound C[C@@H](O)[C@H]1C(=O)N2C(C(=O)O)=C(S[C@@H]3CN[C@H](C(=O)N(C)C)C3)[C@H](C)[C@H]12 , what [Meropenem] Replicate 4 is on record?
Response: 19.9 mg/L

Query: For the compound CO/N=C(\C(=O)N[C@@H]1C(=O)N2C(C(=O)O)=C(CSc3nc(=O)c(O)nn3C)CS[C@H]12)c1csc(N)n1 , what [Meropenem] Replicate 4 is on record?
Response: 20.0 mg/L

Query: For the compound CC1(C)S[C@@H]2[C@H](NC(=O)[C@H](C(=O)O)c3ccsc3)C(=O)N2[C@H]1C(=O)O , what [Meropenem] Replicate 4 is on record?
Response: 21.9 mg/L

Query: For the compound CC(C)(O/N=C(\C(=O)N[C@@H]1C(=O)N2C(C(=O)[O-])=C(C[n+]3ccccc3)CS[C@H]12)c1csc(N)n1)C(=O)O , what [Meropenem] Replicate 4 is on record?
Response: 20.2 mg/L

Query: For the compound CO/N=C(\C(=O)N[C@@H]1C(=O)N2C(C(=O)O)=C(COC(C)=O)CS[C@H]12)c1csc(N)n1 , what [Meropenem] Replicate 4 is on record?
Response: 20.2 mg/L

Query: For the compound Cc1onc(-c2ccccc2)c1C(=O)N[C@@H]1C(=O)N2[C@@H]1SC(C)(C)[C@@H]2C(=O)O , what [Meropenem] Replicate 4 is on record?
Response: 23.8 mg/L

----------
# test.target: beta-lactamase class D OXA-48 (Klebsiella pneumoniae, UniProt Q6XEC0)
# Assay type: biochemical
# run.parameters: second drug alone in ultrafiltrated serum at 10 times recommended blood concentration; result expressed as meropenem concentration, theoretically zero; replicate 3
Give measured [meropenem] (mg/L) Replicates 3 for each item. Keep answers brief.
Dear colleague, please return just the value in mg/L, with no unit written.

Query: For the molecule NC[C@H](O)c1ccc(O)c(O)c1 , what [meropenem] (mg/L) Replicates 3 is on record?
Response: -0.08

Query: For the molecule OC(Cn1cncn1)(Cn1cncn1)c1ccc(F)cc1F , what [meropenem] (mg/L) Replicates 3 is on record?
Response: 0.11

Query: For the molecule CN1C(=O)CN=C(c2ccccc2)c2cc(Cl)ccc21 , what [meropenem] (mg/L) Replicates 3 is on record?
Response: 0.01

Query: For the molecule CNCC(O)c1ccc(O)c(O)c1 (centres unmarked) , what [meropenem] (mg/L) Replicates 3 is on record?
Response: 0.00

Query: For the molecule NCCc1ccc(O)c(O)c1 , what [meropenem] (mg/L) Replicates 3 is on record?
Response: -0.07

Query: For the molecule O=C1CN=C(c2ccccc2Cl)c2cc([N+](=O)[O-])ccc2N1 , what [meropenem] (mg/L) Replicates 3 is on record?
Response: 0.01

Query: For the molecule CC[C@@H](C(N)=O)N1CCCC1=O , what [meropenem] (mg/L) Replicates 3 is on record?
Response: -0.06

Query: For the molecule CCC1(CC)C(=O)NC(=S)NC1=O , what [meropenem] (mg/L) Replicates 3 is on record?
Response: 0.09

Query: For the molecule C[C@]12CCC(=O)C=C1CC[C@@H]1[C@@H]2[C@@H](O)C[C@@]2(C)[C@H]1CC[C@]2(O)C(=O)COC(=O)CCC(=O)O , what [meropenem] (mg/L) Replicates 3 is on record?
Response: 0.00

Query: For the molecule CC(CCc1ccc(O)cc1)NCCc1ccc(O)c(O)c1 (centres unmarked) , what [meropenem] (mg/L) Replicates 3 is on record?
Response: -0.14

Query: For the molecule C[C@@H](c1ncncc1F)[C@](O)(Cn1cncn1)c1ccc(F)cc1F , what [meropenem] (mg/L) Replicates 3 is on record?
Response: 0.10
